molecular target: hITK enzyme (FLAG-tagged full-length hITK) (Homo sapiens, UniProt Q08881); construct: strongly expressing FLAG-tagged full-length hITK in Sf9 cells; FLAG; made in house; host or cells: Sf9 insect cells (ITK); Escherichia coli (GST-SLP76 substrate); assay: ITK inhibitory activity (HTRF kinase assay, biotinylated GST-SLP76 substrate); type: biochemical; details: IC50 calculated from the 2 test compound concentrations sandwiching 50% ITK inhibitory rate
Sequence (Q08881 whole entry): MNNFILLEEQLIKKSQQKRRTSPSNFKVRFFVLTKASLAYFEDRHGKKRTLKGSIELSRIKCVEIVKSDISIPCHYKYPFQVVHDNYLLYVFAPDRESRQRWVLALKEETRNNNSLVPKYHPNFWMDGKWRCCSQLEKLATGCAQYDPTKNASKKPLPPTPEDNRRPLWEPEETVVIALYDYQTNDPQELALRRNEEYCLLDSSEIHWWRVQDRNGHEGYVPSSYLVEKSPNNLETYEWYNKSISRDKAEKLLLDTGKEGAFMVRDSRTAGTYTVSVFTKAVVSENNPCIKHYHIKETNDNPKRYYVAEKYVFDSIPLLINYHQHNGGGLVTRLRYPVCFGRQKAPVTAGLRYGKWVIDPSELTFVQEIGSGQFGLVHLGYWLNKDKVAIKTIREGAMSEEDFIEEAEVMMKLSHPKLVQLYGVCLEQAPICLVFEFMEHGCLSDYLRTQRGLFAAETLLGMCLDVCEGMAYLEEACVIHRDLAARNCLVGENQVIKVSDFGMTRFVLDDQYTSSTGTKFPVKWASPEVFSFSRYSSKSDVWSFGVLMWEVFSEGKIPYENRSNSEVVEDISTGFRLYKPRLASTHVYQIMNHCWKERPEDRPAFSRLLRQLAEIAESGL
pIC50: −log10 of the molar value.
Outcome: Criterion met for pIC50 of at least 8; Criterion not met for anything lower.

Before answering, review these 5 worked examples.
CN(C(=O)CN1CCCCCC1=O)c1ccc2cc(-c3n[nH]c4c3CCC(C)(C)C4)[nH]c2c1 [Example 127]    Criterion met
CC1(C)CCc2c(-c3cc4ccc(C(=O)N5CCOCC5)cc4[nH]3)n[nH]c2C1 [Example 19]    Criterion not met
COCCN(C)C(=O)c1ccc2[nH]c(-c3n[nH]c4c3CCC(C)(C)C4)cc2c1 [Example 313]    Criterion not met
CN(C(=O)CC1CCC(=O)N1)c1ccc2cc(-c3n[nH]c4c3CCC(C)(C)C4)[nH]c2c1 (stereo not shown) [Example 143]    Criterion met
CN(C)CCCN(C(=O)CC1CCOCC1)c1ccc2cc(-c3n[nH]c4c3CCC(C)(C)C4)[nH]c2c1 [Example 226]    Criterion met

Check if pIC50 >= 8 (inclusive). Item: COCC1(C)CCc2c(-c3cc4ccc(N(C)C(=O)CN5CCCCC5=O)cc4[nH]3)n[nH]c2C1 (stereo not shown) [Example 347]
Criterion met

Check if pIC50 >= 8 (inclusive). Item: CN(C(=O)[C@@H]1CCCO1)c1ccc2cc(-c3n[nH]c4c3CCC(C)(C)C4)[nH]c2c1 [Example 139]
Criterion met

Check if pIC50 >= 8 (inclusive). Item: CC1(C)CCc2c(-c3cc4cc(C(=O)N5CCc6[nH]cnc6C5)ccc4[nH]3)n[nH]c2C1 [Example 334]
Criterion not met

Check if pIC50 >= 8 (inclusive). Item: CC1(C)CCc2c(-c3cc4ccc(N5CCOC5=O)cc4[nH]3)n[nH]c2C1 [Example 208]
Criterion not met

Check if pIC50 >= 8 (inclusive). Item: CCC(=O)N(C)c1ccc2cc(-c3n[nH]c4c3CC(O)CC4)[nH]c2c1 (stereo not shown) [Example 365]
Criterion not met

Check if pIC50 >= 8 (inclusive). Item: CO[C@H]1CC[C@@H](C(=O)N(C)c2ccc3cc(-c4n[nH]c5c4CCC(C)(CO)C5)[nH]c3c2)CC1 (stereo partly shown) [Example 346]
Criterion met

Check if pIC50 >= 8 (inclusive). Item: CCCOCCNC(=O)c1ccc2[nH]c(-c3n[nH]c4c3CCC(C)(C)C4)cc2c1 [Example 308]
Criterion not met

Check if pIC50 >= 8 (inclusive). Item: C[C@H]1COCC(=O)N1CC(=O)N(C)c1ccc2cc(-c3n[nH]c4c3CCC(C)(C)C4)[nH]c2c1 [Example 172]
Criterion met
